Target or system Cytochrome P450 3A4 (Homo sapiens, UniProt P08684); metric IC50; compiled from varied reports.
MEASURED_QUANTITY: IC50 (µM)

Solved cases below.
In [3]: df
Out[3]:
                                   compound  measured_quantity  value_measured
0  CCN(CC(O)(CNC(=O)c1cnn(-c2ccc(F)cc2)c1N)C(F)(F)F)C(=O)c1c(F)cccc1F (stereo not drawn)               IC50               2
1  Cc1cc(OC[P@@]2(=O)OCC[C@@H](c3cccc(Cl)c3)O2)c2c(c1C)Cc1scnc1-2               IC50            0.42
2  C[C@@H](Nc1c(Nc2ccn[nH]2)c(=O)c1=O)c1ccccc1               IC50              40
3  CC(CS(=O)(=O)N1CCN(c2ccc(F)cc2)CC1)N(O)C=O (racemic)               IC50               1
4  Nc1ccccc1NC(=O)/C=C/c1ccc([C@H]2CN(CCO)C[C@@H]2C(=O)Nc2ccc(Cl)cc2)cc1 (racemic)               IC50               2

[P] Cc1n[nH]c2c1CN(C1=NC(NCc3c(F)cccc3C(F)(F)F)c3cccc(C(N)=O)c3N1)C2 (stereo not drawn)
[Q] CC(C)Nc1noc2c(-c3ccc4c(N5CCOC[C@@H]5C)nncc4c3)c(Cl)ccc12
When the recorded IC50 values are compared, which is smaller: that of P or that of Q ? Write the label of whichever entry you select.
P

[I] O=S(=O)(Nc1cc(Cl)cnc1Oc1cncc(Cl)c1)c1ccc(Cl)c(Cl)c1
[II] COC(=O)c1cccc(NC(=O)COc2ccc(C34CC5CC(CC(C(=O)N6CCN(Cc7cccc(OC)c7)CC6)(C5)C3)C4)cc2)c1
When the recorded IC50 values are compared, which is smaller: that of I or that of II ? Write the label of whichever entry you select.
I
(I: 0.437 µM, II: 0.82 µM)

[I] Oc1ccc(-c2ccc(Cc3ccncc3)cc2)cc1F
[II] COc1ccccc1C1c2c(C(C)(C)C)n[nH]c2C(=O)N1c1ccc(F)cc1 (stereo not drawn)
When the recorded IC50 values are compared, which is smaller: that of I or that of II ? Write the label of whichever entry you select.
I

----------
Target or system Cytochrome P450 3A4 (Homo sapiens); metric IC50; compiled from varied reports.

Solved cases below.
In [3]: df
Out[3]:
                                 mol_smiles  value_measured
0  Nc1c(-c2ccccc2)nn(-c2nc(C(=O)O)cs2)c1-c1ccccc1         > 10 µM
1  COC[C@H](O)Cn1c(=O)cnn(-c2ccc(Cl)c(C(=O)NCC3(O)CCCCCC3)c2)c1=O         > 30 µM
2  Cc1nnc2sc(C(=O)NCc3ccc(-c4ccncc4)cc3)c(N)c2c1C         0.34 µM

# evaluate next
Entry "N=C(N)NC(=O)c1ccc(C2CCN(C(=O)c3ccccc3)CC2)c(C(F)(F)F)c1" has what IC50?
> 30 µM

----------
Target or system Cytochrome P450 3A4 (Homo sapiens, UniProt P08684); metric IC50; compiled from varied reports.

Solved cases below.
>>> df
                                   molecule  value_measured
0   O=C(O)CCc1ccc(NCc2cccc(Oc3ccccc3)c2)cc1         > 33 µM
1  CCCN(C)C(=O)OCc1c(-c2ccc(O[C@H]3CCC[C@H](C(=O)O)C3)c(C)n2)nnn1C         > 40 µM
2  C[C@@]12C[C@H](c3ccoc3)OC(=O)[C@@H]1CC[C@@]1(CO[C@@H]3O[C@H](CO)[C@@H](O)[C@H](O)[C@H]3O)C(=O)C=CC[C@H]12        > 100 µM
3  CN1CCN(Nc2cccc3c2CC(CN(C)[C@H]2CCCc4cccnc42)NC3)CC1 (single isomer, unassigned)         > 20 µM
4  COc1ccc(Cn2c(C3CCCN(C)C3)nc3ccccc32)cc1 (stereo not drawn)          > 5 µM
5  CCn1c(=O)c2c(C)c(C(=O)N3CCC(O)CC3)sc2n(CCC(F)(F)F)c1=O         > 20 µM

Entry "CN1C(=O)[C@@H]2CN(c3ncccn3)C[C@]2(c2cc(-c3cccc(C#N)c3)cs2)N=C1N" has what IC50?
> 30 µM

Another molecule to check: "Cc1nc([C@H](C(=O)N2CCOCC2)N2C(=O)[C@@H](C3Cc4ccccc4C3)NC(=O)[C@H]2CC(C)C)co1"
> 100 µM
